Each recorded value in this set is attributed to ChEMBL document CHEMBL4364336.

# study target: Carbonic anhydrase 9 (Homo sapiens, UniProt Q16790)
# procedure text: Inhibition of recombinant human carbonic anhydrase9 preincubated for 10 mins followed by CO2 solution addition by phenol red dye based stopped flow CO2 hydration assay
value kind: Ki (µM)

Known results for compounds:
For the compound "COc1ccc(NC(=O)/C=C/c2sc(N3CCOCC3)nc2-c2ccc([N+](=O)[O-])cc2)cc1" , what Ki is on record?
54.7

For the compound "Nc1ccccc1NC(=O)/C=C/c1sc(N2CCOCC2)nc1-c1ccc([N+](=O)[O-])cc1" , what Ki is on record?
96.7

(1) O=C(/C=C/c1sc(N2CCOCC2)nc1-c1ccc([N+](=O)[O-])cc1)Nc1ccc(Br)cc1
(2) COc1ccc(NC(=O)/C=C/c2sc(N3CCOCC3)nc2-c2ccc(Cl)cc2)cc1
Please choose the item with the lower Ki value from this pair: 1 and 2 Lab note: record the label of whichever item you select.
1
